# Test system: S. pneumoniae ATCC 49619
# assay method text: MIC, NCCLS broth microdilution assay
# Assay type: cell-based, Streptococcus pneumoniae
# measurement parameters: H = S. pneumoniae ATCC 49619

| query smiles | tgt | Minimum Inhibitory Concentration (MIC) |
| --- | --- | --- |
| Cn1cc(NC(=O)c2cc(NC(=O)c3ccc(Cl)cc3F)c[nH]2)cc1C(=O)Nc1cc(C(=O)NCCN2CCCCC2)n(CCCO)c1 | S. pneumoniae ATCC 49619 | +++ (+++ = MIC ≦ 4) |
| Cn1cc(NC(=O)c2cc(NC(=O)c3cc(NC(=O)c4cc(NC(=O)c5ccccc5F)cn4C)cn3C)cn2C)cc1C(=O)NCCN1CCSCC1 | S. pneumoniae ATCC 49619 | +++ (+++ = MIC ≦ 4) |
| Cc1cc(NC(=O)c2cc(NC(=O)c3cc(NC(=O)c4ccc(Cl)cc4F)c[nH]3)cn2CCC[N+](C)(C)C)sn1 | S. pneumoniae ATCC 49619 | +++ (+++ = MIC ≦ 4) |

====

# System: E. faecalis ATCC 29212
# assay method text: MIC, NCCLS broth microdilution assay
# Assay type: cell-based, Enterococcus faecalis
# measurement parameters: C = E. faecalis ATCC 29212
experimental readout: Minimum Inhibitory Concentration (MIC)

| query smiles | endpoint value |
| --- | --- |
| Cn1cc(NC(=O)c2cc(NC(=O)c3cc(NC(=O)c4ccc(Cl)cc4F)cn3CCCO)cn2C)cc1C(=O)NCCN1CCOCC1 | +++ (+++ = MIC ≦ 4) |
| Cn1cc(NC(=O)c2cc(NC(=O)c3ccc(F)cc3F)cn2C)cc1C(=O)NCCN1CCCC1 | +++ (+++ = MIC ≦ 4) |
| Cn1cc(NC(=O)c2cc(NC(=O)c3cc(NC(=O)c4cc(NC(=O)c5ccc(Cl)cc5F)c[nH]4)cn3C)cn2C)cc1C(=O)NCCN1CCOCC1 | ++ (++ = 4 < MIC < 12) |
| Cn1cc(NC(=O)c2cc(NC(=O)c3cc(NC(=O)c4ccc(F)c(F)c4)cn3C)cn2C)cc1C(=O)NCCN1CCOCC1 | +++ (+++ = MIC ≦ 4) |
| Cn1cc(NC(=O)c2cc(NC(=O)c3ccc(F)cc3F)cn2C)cc1C(=O)NCCN1CCSCC1 | +++ (+++ = MIC ≦ 4) |
| Cn1cc(NC(=O)c2cc(NC(=O)c3cc(NC(=O)c4cc(NC(=O)c5ccc(F)cc5F)c[nH]4)cn3C)cn2C)cc1C(=O)NCCN1CCOCC1 | ++ (++ = 4 < MIC < 12) |

====

# Tested on: S. pneumoniae ATCC 49619
# assay method text: MIC, NCCLS broth microdilution assay
# Format: cell-based, Streptococcus pneumoniae
# measurement parameters: H = S. pneumoniae ATCC 49619
experimental readout: Minimum Inhibitory Concentration (MIC)

| molecule | experimental readout | endpoint value |
| --- | --- | --- |
| Cn1cc(NC(=O)c2cc(NC(=O)c3cc(NC(=O)c4ccc(F)cc4F)cn3C)cn2C)cc1C(=O)NCCN1CCCCC1 [Compound B-6] | Minimum Inhibitory Concentration (MIC) | +++ (+++ = MIC ≦ 4) |
| CN(C)CCCNC(=O)c1cc(NC(=O)c2cc(NC(=O)c3cc(NC(=O)c4ccc(Cl)cc4F)cn3C)cn2C)cn1C [Compound B-50] | Minimum Inhibitory Concentration (MIC) | +++ (+++ = MIC ≦ 4) |
| Cn1cc(NC(=O)c2cc(NC(=O)c3cc(NC(=O)c4ccc(F)cc4F)cn3C)cn2C)cc1C(=O)NCCN1CCC(O)CC1 [Compound B-19] | Minimum Inhibitory Concentration (MIC) | +++ (+++ = MIC ≦ 4) |

====

# Tested on: E. faecalis ATCC 29212
# assay method text: MIC, NCCLS broth microdilution assay
# Type: cell-based, Enterococcus faecalis
# measurement parameters: C = E. faecalis ATCC 29212

| query smiles | Minimum Inhibitory Concentration (MIC) |
| --- | --- |
| Cn1cc(NC(=O)c2cc(NC(=O)c3cc(NC(=O)c4ccc(F)cc4F)cn3C)cn2C)cc1C(=O)NCCc1cccc[n+]1C | + (+ = 12 ≦ MIC ≦ 32) |
| CN(C)CCCn1cc(NC(=O)c2cc(NC(=O)c3ccc(Cl)cc3F)c[nH]2)cc1C(=O)Nc1cc(C(=O)NCCN2CCOCC2)n(C)c1 | +++ (+++ = MIC ≦ 4) |
| CN(C)CCCCNC(=O)c1cc(NC(=O)c2cc(NC(=O)c3cc(NC(=O)c4ccc(Cl)cc4F)c[nH]3)cn2C)cn1C | +++ (+++ = MIC ≦ 4) |
| Cn1cc(NC(=O)c2cc(NC(=O)c3cc(NC(=O)c4c(Cl)cccc4Cl)cn3C)cn2C)cc1C(=O)NCCN1CCOCC1 | >32 µg/mL |
| Cn1cc(NC(=O)c2cc(NC(=O)c3ccccc3F)cn2C)cc1C(=O)NCCN1CCOCC1 | + (+ = 12 ≦ MIC ≦ 32) |
| CCN(CC)CCNC(=O)c1cc(NC(=O)c2cc(NC(=O)c3ccc(F)cc3F)cn2C)cn1C | ++ (++ = 4 < MIC < 12) |
| Cn1cc(NC(=O)c2ccc(F)cc2F)cc1C(=O)Nc1cc(C(=O)Nc2cc(C(=O)N3CCC(O)CC3)n(C)c2)n(C)c1 | >32 µg/mL |
| Cn1cc(NC(=O)c2cc(NC(=O)c3cc(NC(=O)c4ccc(F)cc4F)cn3C)cn2C)cc1C(=O)NCCN1CCSCC1 | +++ (+++ = MIC ≦ 4) |
| Cn1cc(NC(=O)c2cc(NC(=O)c3cc(NC(=O)c4ccc(Cl)cc4F)cn3C)c[nH]2)cc1C(=O)NCCN1CCOCC1 | +++ (+++ = MIC ≦ 4) |
| Cn1cc(NC(=O)c2cc(NC(=O)c3cc(NC(=O)c4ccc(OC(F)F)cc4)cn3C)cn2C)cc1C(=O)NCCN1CCSCC1 | +++ (+++ = MIC ≦ 4) |
| CN(C)CC(C)(C)CNC(=O)c1cc(NC(=O)c2cc(NC(=O)c3ccc(F)cc3F)cn2C)cn1C | >32 µg/mL |
| Cn1cc(NC(=O)c2cc(NC(=O)c3cc(NC(=O)c4ccc(F)c(Cl)c4)cn3C)cn2C)cc1C(=O)NCCN1CCOCC1 | +++ (+++ = MIC ≦ 4) |
| Cc1cc(NC(=O)c2cc(NC(=O)c3cc(NC(=O)c4ccc(Cl)cc4)cn3C)cn2CCN2CCOCC2)sn1 | + (+ = 12 ≦ MIC ≦ 32) |
| Cn1cc(NC(=O)c2cc(NC(=O)c3cc(NC(=O)c4ccc(F)cc4F)c[nH]3)cn2C)cc1C(=O)NCCc1ccncc1 | +++ (+++ = MIC ≦ 4) |
| Cn1cc(NC(=O)c2cc(NC(=O)c3ccc(F)cc3)cn2C)cc1C(=O)NCCN1CCSCC1 | ++ (++ = 4 < MIC < 12) |
| Cn1cc(NC(=O)c2cc(NC(=O)c3cc(NC(=O)c4ccc(OC(F)F)cc4)cn3C)cn2C)cc1C(=O)NCCN1CCCCC1 | +++ (+++ = MIC ≦ 4) |
| Cn1cc(NC(=O)c2cc(NC(=O)c3cc(NC(=O)c4ccc(Br)cc4F)cn3C)cn2C)cc1C(=O)NCCN1CCOCC1 | +++ (+++ = MIC ≦ 4) |
| Cn1cc(NC(=O)c2cc(NC(=O)c3cc(NC(=O)c4ccccc4F)cn3C)cn2C)cc1C(=O)NCCN1CCOCC1 | +++ (+++ = MIC ≦ 4) |
| Cn1cc(NC(=O)c2cc(NC(=O)c3cc(NC(=O)c4ccc(Cl)cc4F)c[nH]3)cn2C)cc1C(=O)NCCc1cccnc1 | ++ (++ = 4 < MIC < 12) |
| CCN(CC)CCNC(=O)c1cc(NC(=O)c2cc(NC(=O)c3ccc(Cl)cc3F)c[nH]2)cn1C | +++ (+++ = MIC ≦ 4) |
| Cn1cc(NC(=O)c2cc(NC(=O)c3cc(NC(=O)c4ccc(F)cc4F)c[nH]3)cn2C)cc1C(=O)NCCN1CCOCC1 | +++ (+++ = MIC ≦ 4) |
| Cn1cc(NC(=O)c2cc(NC(=O)c3cc(NC(=O)c4ccccc4Cl)cn3C)cn2C)cc1C(=O)NCCN1CCOCC1 | + (+ = 12 ≦ MIC ≦ 32) |
| Cc1cc(NC(=O)c2cc(NC(=O)c3cc(NC(=O)c4ccc(Cl)cc4NCCN4CCCCC4)cn3C)c[nH]2)sn1 | +++ (+++ = MIC ≦ 4) |
| Cn1cc(NC(=O)c2cc(NC(=O)c3ccc(Cl)cc3F)c[nH]2)cc1C(=O)NCCc1ccncc1 | +++ (+++ = MIC ≦ 4) |
| Cn1cc(NC(=O)c2cc(NC(=O)c3cc(NC(=O)c4ccc(Cl)cc4Cl)cn3C)cn2C)cc1C(=O)NCCN1CCOCC1 | +++ (+++ = MIC ≦ 4) |
| Cn1cc(NC(=O)c2cc(NC(=O)c3cc(NC(=O)c4ccc(F)cc4F)cn3C)cn2C)cc1C(=O)NCCN1CCNCC1 | + (+ = 12 ≦ MIC ≦ 32) |
| Cn1cc(NC(=O)c2cc(NC(=O)c3cc(NC(=O)c4ccc(F)cc4F)cn3C)cn2C)cc1C(=O)NCC[N+]1(C)CCOCC1 | >32 µg/mL |
